Test: Cytotoxicity against african green monkey Vero cells after 3 days by neutral red dye method
Type: cell-based
Conditions: chlorocebus sabaeus
readout-type: CC50 at 72 h

mol=CC(=O)OC[C@H]1O[C@@H](n2ccc(O)c(-c3ccc4c(c3)OCO4)c2=O)[C@H](OC(C)=O)[C@@H]1OC(C)=O readout_type="CC50 at 72 h" observed_measurement="> 400 µM"
mol=COc1ccc(-c2cn([C@@H]3O[C@H](COC(C)=O)[C@@H](OC(C)=O)[C@H]3OC(C)=O)c(=O)cc2O)cc1 readout_type="CC50 at 72 h" observed_measurement="> 200 µM"
mol=CCOc1ccc(-c2c(O)c(-c3ccccc3)cn([C@@H]3O[C@H](CO)[C@@H](O)[C@H]3O)c2=O)cc1 readout_type="CC50 at 72 h" observed_measurement="> 200 µM"

Attention now turns to another entry.
Problem: I would be grateful if you could share the reported CC50 at 72 h for O=c1cc(O)c2ccccc2n1[C@@H]1O[C@H](CO)[C@@H](O)[C@H]1O .
Solution: > 200 µM

###

System: Human alphaherpesvirus 1
Experiment: Antiviral activity against Herpes simplex virus type 1 infected in Vero cells at 0.001 ID50/cells assessed as change in cell morphology after 3 days by neutral red dye method
Type: functional, organism-based
Calls of active or inactive are those of the source. The rule behind the calls is not given here.
readout-type: Activity

These recorded examples may help you get a feel for the data.
mol=Cc1ccc(-c2c(O)ccn([C@@H]3O[C@H](CO)[C@@H](O)[C@H]3O)c2=O)cc1 assayed_system="Human alphaherpesvirus 1" observed_measurement=Active
mol=CC(=O)OC[C@H]1O[C@@H](n2ccc(O)c(-c3ccccc3)c2=O)[C@H](OC(C)=O)[C@@H]1OC(C)=O assayed_system="Human alphaherpesvirus 1" observed_measurement=Active
mol=COc1ccc(-c2c(O)ccn([C@@H]3O[C@H](CO)[C@@H](O)[C@H]3O)c2=O)cc1OC assayed_system="Human alphaherpesvirus 1" observed_measurement=Active
mol=O=c1c(-c2ccccc2)c(O)ccn1[C@@H]1O[C@H](CO)[C@@H](O)[C@H]1O assayed_system="Human alphaherpesvirus 1" observed_measurement=Active
mol=COc1ccc(-c2c(O)ccn([C@@H]3O[C@H](CO)[C@@H](O)[C@H]3O)c2=O)cc1 assayed_system="Human alphaherpesvirus 1" observed_measurement=Active

Problem: If you can, please state the reported Activity value of O=c1c(-c2ccc3c(c2)OCO3)c(O)ccn1[C@@H]1O[C@H](CO)[C@@H](O)[C@H]1O .
Solution: Active

Problem: What about this compound? COc1ccc(-c2c(O)ccn([C@@H]3O[C@H](COC(C)=O)[C@@H](OC(C)=O)[C@H]3OC(C)=O)c2=O)cc1
Solution: Active

Problem: Check CC(=O)OC[C@H]1O[C@@H](n2ccc(O)c(-c3ccc4c(c3)OCO4)c2=O)[C@H](OC(C)=O)[C@@H]1OC(C)=O too.
Solution: Active

Problem: CC(=O)OC[C@H]1O[C@@H](n2ccc(O)c(CCc3ccccc3)c2=O)[C@H](OC(C)=O)[C@@H]1OC(C)=O ?
Solution: Active

Problem: // repeat for O=c1c(CCc2ccccc2)c(O)ccn1[C@@H]1O[C@H](CO)[C@@H](O)[C@H]1O and report
Solution: Active

Problem: And the next one, COc1ccc(-c2c(O)ccn([C@@H]3O[C@H](COC(C)=O)[C@@H](OC(C)=O)[C@H]3OC(C)=O)c2=O)cc1OC ?
Solution: Active

Problem: Same for CC(=O)OC[C@H]1O[C@@H](n2ccc(O)c(-c3ccc(C)cc3)c2=O)[C@H](OC(C)=O)[C@@H]1OC(C)=O
Solution: Active
